- Tested on: NCI/ADR-RES ovarian
- testProtocol: NCI-60 one-dose screen, 48 h
- assayConditions: 10 µM unless noted
This is part of a sample that, as a whole, favours compounds with a hit. Of some 83,000 tested, about 20% had one in any assay. Activity calls are given as the source filed them. Rule for the calls: active = growth percent below 10; inactive = the rest.
Please answer using one outcome listed in class 1 = active, class 0 = inactive

Task: What did the test return for CCCOC(=O)C1(O)CCCC1 ?
Output: class 0

Task: What did the test return for O=S(=O)(NCCCNc1cc(-c2cn(-c3ccccc3)nc2-c2cccc(O)c2)ccn1)c1ccc(Br)cc1 ?
Output: class 0

Task: What did the test return for Cc1ccc(C(=O)c2sc3nc4c(cc3c2N)CCCC4)c(C)c1 ?
Output: class 0

Task: What did the test return for C=CCOc1ccc(/C(O)=C2\C(=O)C(=O)N(c3nccs3)C2c2ccccc2F)cc1 (configuration not stated) ?
Output: class 0

Task: What did the test return for Cc1ccc2nc(SCn3nnc4ccccc4c3=O)[nH]c2c1 ?
Output: class 0

Task: What did the test return for O=C(Cc1n[nH]c(=O)c2ccccc12)OCc1c(Cl)cccc1Cl ?
Output: class 0

Task: What did the test return for COc1cc2c3c(c(=O)oc2cc1OS(=O)(=O)c1ccc(C(F)(F)F)cc1)CCCCC3 ?
Output: class 0

Task: What did the test return for COc1cc(NC(=O)CCl)ccc(=O)c1 ?
Output: class 0

Task: What did the test return for O=C(N/N=C/c1c(Cl)cccc1Cl)c1ccccc1Nc1ccnc(C(F)(F)F)c1 ?
Output: class 0

Task: What did the test return for C#CCC1(c2ccc(F)c(F)c2)NS(=O)(=O)c2ccccc21 (configuration not stated) ?
Output: class 0

Task: What did the test return for COc1cc(-c2nc(-c3nc4ccccc4[nH]3)cc3c2[nH]c2ccccc23)cc(OC)c1OC ?
Output: class 0

Task: What did the test return for COc1cccc(/C=C/c2c(C(=O)O)cccc2[N+](=O)[O-])c1OC ?
Output: class 0

Task: What did the test return for CC(=O)/C=C/c1cc2cc(Cl)ccc2[nH]c1=O ?
Output: class 0

Task: What did the test return for O=c1[nH]c(-c2cn(-c3ccc(Cl)cc3)nn2)nc2ccccc12 ?
Output: class 0

Task: What did the test return for CCCCCC(=O)OCc1ccccc1 ?
Output: class 0

Task: What did the test return for NC(=O)c1ccc2c(c1)OCO2 ?
Output: class 0

Task: What did the test return for O=C(Nc1ccccc1)OCC1OCOC(COC(=O)Nc2ccccc2)C1OC(=O)Nc1ccccc1 (configuration not stated) ?
Output: class 0

Task: What did the test return for Cc1ccc(C2=NN(c3ccc(S(=O)(=O)NC(=O)NCc4ccccc4)cc3)C(c3ccc(N(C)C)cc3)C2)c(C)c1 (configuration not stated) ?
Output: class 0

Task: What did the test return for C=CCN=C1NC(=O)/C(=C/c2cc(C(C)(C)C)c(O)c(C(C)(C)C)c2)S1 ?
Output: class 0

Task: What did the test return for COc1ccc(C2SCC(=O)N2NC(=O)c2ccc(NC(=O)c3ccccn3)cc2)cc1OC (configuration not stated) ?
Output: class 0

Task: What did the test return for CC/C=C\C/C=C\C[C@H](O)C/C=C1/C(=O)C=C[C@H]1C/C=C\CCC(=O)OC ?
Output: class 0

Task: What did the test return for COc1ccc(/C=C2\CCCC3=C2NC(C)=NC3c2ccc(OC)c(OC)c2)cc1OC (configuration not stated) ?
Output: class 0

Task: What did the test return for CCC#CC[C@H]1C/C=C2/C(=O)C=C[C@@H]2C/C=C\CCCC(=O)O1 ?
Output: class 0

Task: What did the test return for COc1ccc(NC(=O)CSc2nc3ccc(Cl)cc3c(=O)n2-c2ccccc2C(F)(F)F)c(OC)c1OC ?
Output: class 0

Task: What did the test return for CNC(=O)Cc1nc(-c2cccc(NS(=O)(=O)c3c(F)cccc3F)c2F)c(-c2ccnc(Nc3ccccc3)n2)s1 ?
Output: class 0

Task: What did the test return for CCC(c1cccc(Br)c1)C(C(=O)O)c1ccc(OC)cc1 (configuration not stated) ?
Output: class 0

Task: What did the test return for NC(N)=NC(N)=Nc1ccccc1-c1ccccc1 ?
Output: class 0

Task: What did the test return for COc1ccc2c(c1)NC(=O)CN2c1nc(C)nc2ccccc12 ?
Output: class 0

Task: What did the test return for COc1cc(OC)c(C(=O)/C=C/c2cccc(C(F)(F)F)c2)c(OC)c1 ?
Output: class 0

Task: What did the test return for CCC1CCc2nc3sc(C(=O)Nc4cccc(C)c4)c(N)c3cc2C1 (configuration not stated) ?
Output: class 0

Task: What did the test return for COc1ccc(/C=C2\C(=O)N(C(=O)c3csc(NC(C)=O)n3)N=C2C)cc1 ?
Output: class 0

Task: What did the test return for C=C1C(=O)O[C@H]2[C@H]1CC/C(Cn1cc(-c3ccsc3)nn1)=C\CC[C@@]1(C)O[C@@H]21 ?
Output: class 0

Task: What did the test return for Cc1ccc(S(=O)(=O)OC2COCOC2C(OS(=O)(=O)c2ccc(C)cc2)C2OCOCC2OS(=O)(=O)c2ccc(C)cc2)cc1 (configuration not stated) ?
Output: class 0

Task: What did the test return for COc1ccc(/C=N/NC(=O)Cn2c(Cc3cccc4ccccc34)nc3ccccc32)cc1 ?
Output: class 0

Task: What did the test return for OCc1c(-c2ccccc2)nc2sccn12 ?
Output: class 0

Task: What did the test return for Cc1ccc(Cn2c(-c3nonc3N)nc3ccccc32)cc1 ?
Output: class 0

Task: What did the test return for CSc1ccccc1C#C/C=C\C#Cc1ccccc1N1CCCCC1=O ?
Output: class 0

Task: What did the test return for COc1ccc(-c2nc3sccn3c2-c2ccnc(NCCCNS(=O)(=O)c3ccc(F)cc3)n2)cc1 ?
Output: class 1

Task: What did the test return for CCCC1OC(c2ccc(C(C)C)cc2)OCC1CC (configuration not stated) ?
Output: class 0

Task: What did the test return for NS(=O)(=O)c1ccc(CN2C(=O)c3cccc4cccc(c34)C2=O)cc1 ?
Output: class 0

Task: What did the test return for Nc1nc(N)c2nc(CNc3ccc(C(=O)CC(CCC(=O)O)C(=O)O)cc3)cnc2n1 (configuration not stated) ?
Output: class 0

Task: What did the test return for COc1cc(/C=C2\C=C(c3ccc(F)cc3)N(Cc3ccccc3)C2=O)cc(OC)c1OC ?
Output: class 0
